meta.source: the supplement of paper PMC10567573

Reported protein stability index values for a set of variants
B1: HESX1 (parent)
chain: QKKDCVPLMKPHRPWADTCSSSGK

- Variants of: B1
- PROCEDURE SUMMARY: protein stability index of a GFP-peptide fusion (GPS, HEK-293T) (PSI 1-6); higher = more stable;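 note: lentivirally expressed fusions sorted by FACS into six bins by GFP to DsRed ratio, PSI derived from sequencing read proportions per bin multiplied by bin number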
- CONDITION PARAMETERS: c terminus: a fixed tail appended
MEASUREMENT TYPE: protein stability index

   mutation_name         measurement_type  observed_value
0            L8Q  protein stability index             4.1
1           T18D  protein stability index            3.96
2           C19A  protein stability index            4.07
3           A16E  protein stability index             3.9
